- Test system: Acinetobacter baumanii
- Method Notes: Single-point BisEDT-antibiotic combination FICI
- Format: cell-based
- Protocol Conditions: Abau 2594
Observed Property: FICI, single-point BisEDT-antibiotic combination
The response must contain the number and no unit.

Record excerpt, results attached:
1) [H]/N=C(/N)N[C@H]1[C@H](O)[C@@H](O)[C@H](O[C@@H]2O[C@@H](C)[C@](O)(C=O)[C@H]2O[C@@H]2O[C@@H](CO)[C@H](O)[C@@H](O)[C@@H]2NC)[C@@H](N/C(N)=N\[H])[C@@H]1O    2.62
2) CO/N=C(\C(=O)N[C@@H]1C(=O)N2C(C(=O)O)=C(COC(C)=O)CS[C@H]12)c1csc(N)n1    1.29
3) O=C(O)c1cn(C2CC2)c2cc(N3CCNCC3)c(F)cc2c1=O    1.04

Field: next molecule
FICI, single-point BisEDT-antibiotic combination of "CN(C)c1ccc(O)c2c1C[C@H]1C[C@H]3[C@H](N(C)C)C(O)=C(C(N)=O)C(=O)[C@@]3(O)C(O)=C1C2=O" , assay on Acinetobacter baumanii, is 1.29

---

Each record here notes measured FICI, single-point BisEDT-antibiotic combination.
- Tested on: Escherichia coli
- Method Notes: Single-point BisEDT-antibiotic combination FICI
- Format: cell-based
- Protocol Conditions: EC 102
The response must contain the number and no unit.

1) C[C@H]1[C@H](NC(=O)/C(=N\OC(C)(C)C(=O)O)c2csc(N)n2)C(=O)N1S(=O)(=O)O [Aztreonam]    0.74
2) CO/N=C(\C(=O)N[C@@H]1C(=O)N2C(C(=O)O)=C(COC(C)=O)CS[C@H]12)c1csc(N)n1 [Cefotaxime]    1.37
3) CN(C)c1ccc(O)c2c1C[C@H]1C[C@H]3[C@H](N(C)C)C(O)=C(C(N)=O)C(=O)[C@@]3(O)C(O)=C1C2=O [Minocycline, minocycline]    1.37

Lookup result for O=C(O)c1cn(C2CC2)c2cc(N3CCNCC3)c(F)cc2c1=O [Ciprofloxacin] ; measured FICI, single-point BisEDT-antibiotic combination: 1.14

---

Each record here notes measured MBC.
- Tested on: S. epidermidis
- Method Notes: Broth dilution MIC/MBC, BT-antibiotic combinations
- Type: cell-based, Staphylococcus epidermidis
- Protocol Conditions: S. epidermidis S2400-1; BisEDT 0.0 μg/ml

Record excerpt, results attached:
1) CN(C)c1ccc(O)c2c1C[C@H]1C[C@H]3[C@H](N(C)C)C(O)=C(C(N)=O)C(=O)[C@@]3(O)C(O)=C1C2=O [Minocycline, minocycline]    1.20 µg/mL
2) CCC[C@@H]1C[C@@H](C(=O)N[C@@H]([C@H]2O[C@H](SC)[C@H](O)[C@@H](O)[C@H]2O)[C@H](C)Cl)N(C)C1 [Clindamycin, clindamycin]    2048 µg/mL
3) CO[C@H]1/C=C/O[C@@]2(C)Oc3c(C)c(O)c4c(O)c(c(/C=N/N5CCN(C)CC5)c(O)c4c3C2=O)NC(=O)/C(C)=C\C=C\[C@H](C)[C@H](O)[C@@H](C)[C@@H](O)[C@@H](C)[C@H](OC(C)=O)[C@@H]1C [Rifampin]    0.03 µg/mL

Lookup result for Cc1nnc(SCC2=C(C(=O)O)N3C(=O)[C@@H](NC(=O)Cn4cnnn4)[C@H]3SC2)s1 [Cefazolin, cefazolin] ; measured MBC: 48 µg/mL

Lookup result for COc1c(N2CCNC(C)C2)c(F)cc2c(=O)c(C(=O)O)cn(C3CC3)c12 (stereo not shown) [Gatifloxacin, gatifloxacin] ; measured MBC: 2.8 µg/mL

Lookup result for CN[C@H](CC(C)C)C(=O)N[C@H]1C(=O)N[C@@H](CC(N)=O)C(=O)N[C@H]2C(=O)N[C@H]3C(=O)N[C@H](C(=O)N[C@H](C(=O)O)c4cc(O)cc(O)c4-c4cc3ccc4O)[C@H](O)c3ccc(c(Cl)c3)Oc3cc2cc(c3O[C@@H]2O[C@H](CO)[C@@H](O)[C@H](O)[C@H]2O[C@H]2C[C@](C)(N)[C@H](O)[C@H](C)O2)Oc2ccc(cc2Cl)[C@H]1O [Vancomycin, vancomycin] ; measured MBC: 5.4 µg/mL

Lookup result for CCOc1ccc2ccccc2c1C(=O)N[C@@H]1C(=O)N2[C@@H]1SC(C)(C)[C@@H]2C(=O)O [Nafcillin] ; measured MBC: 256 µg/mL
